Conditions: in n-butanol, 293.3 K
testReadout: solubility (mole fraction)
I'd appreciate a reply containing only the number, no unit.

Kindly note the recorded solubility (mole fraction) for O=C(O)c1cccc(C(=O)O)c1 , which is 0.00265

* * *

Conditions: in isopropanol, 318.25 K
testReadout: solubility (mole fraction)
I'd appreciate a reply containing only the number, no unit.

Kindly note the recorded solubility (mole fraction) for O=C(O)c1cccc(C(=O)O)c1 , which is 0.00675

* * *

Conditions: in methanol, 302.65 K
testReadout: solubility (mole fraction)

Kindly note the recorded solubility (mole fraction) for O=C(O)c1cccc(C(=O)O)c1 , which is 0.00411

* * *

Conditions: in methanol, 307.95 K
testReadout: solubility (mole fraction)
I'd appreciate a reply containing only the number, no unit.

Kindly note the recorded solubility (mole fraction) for O=C(O)c1cccc(C(=O)O)c1 , which is 0.00456

* * *

Details: in n-hexanol, 298.48 K
testReadout: solubility (mole fraction)
I'd appreciate a reply containing only the number, no unit.

Kindly note the recorded solubility (mole fraction) for O=C(O)c1cccc(C(=O)O)c1 , which is 0.00244

* * *

Conditions: in methanol, 293.25 K
testReadout: solubility (mole fraction)
I'd appreciate a reply containing only the number, no unit.

Kindly note the recorded solubility (mole fraction) for O=C(O)c1cccc(C(=O)O)c1 , which is 0.00346

* * *

Conditions: in methanol, 278.15 K
testReadout: solubility (mole fraction)
I'd appreciate a reply containing only the number, no unit.

Kindly note the recorded solubility (mole fraction) for O=C(O)c1cccc(C(=O)O)c1 , which is 0.00253

* * *

Conditions: in sec-butanol, 293.15 K
testReadout: solubility (mole fraction)

Kindly note the recorded solubility (mole fraction) for O=C(O)c1cccc(C(=O)O)c1 , which is 0.00209

* * *

Details: in n-butanol, 288.27 K
testReadout: solubility (mole fraction)
I'd appreciate a reply containing only the number, no unit.

Kindly note the recorded solubility (mole fraction) for O=C(O)c1cccc(C(=O)O)c1 , which is 0.00234

* * *

Details: in n-pentanol, 303.05 K
testReadout: solubility (mole fraction)
I'd appreciate a reply containing only the number, no unit.

Kindly note the recorded solubility (mole fraction) for O=C(O)c1cccc(C(=O)O)c1 , which is 0.00408

* * *

Conditions: in n-propanol, 283.34 K
testReadout: solubility (mole fraction)
I'd appreciate a reply containing only the number, no unit.

Kindly note the recorded solubility (mole fraction) for O=C(O)c1cccc(C(=O)O)c1 , which is 0.0022

* * *

Settings: in sec-butanol, 308.25 K
testReadout: solubility (mole fraction)
I'd appreciate a reply containing only the number, no unit.

Kindly note the recorded solubility (mole fraction) for O=C(O)c1cccc(C(=O)O)c1 , which is 0.00311

* * *

Details: in n-butanol, 283.11 K
testReadout: solubility (mole fraction)
I'd appreciate a reply containing only the number, no unit.

Kindly note the recorded solubility (mole fraction) for O=C(O)c1cccc(C(=O)O)c1 , which is 0.00216

* * *

Conditions: in isopropanol, 313.15 K
testReadout: solubility (mole fraction)
I'd appreciate a reply containing only the number, no unit.

Kindly note the recorded solubility (mole fraction) for O=C(O)c1cccc(C(=O)O)c1 , which is 0.00607

* * *

Settings: in sec-butanol, 318.15 K
testReadout: solubility (mole fraction)
I'd appreciate a reply containing only the number, no unit.

Kindly note the recorded solubility (mole fraction) for O=C(O)c1cccc(C(=O)O)c1 , which is 0.00391
